Provide the reported pIC50 of each item.
System: HCT-116, MDA-MB-231, HeLa, and MCF-7
assay-protocol: MTT cytotoxicity assay, ranges stated over several cell lines
Type: cell-based
protocol-conditions: Homo sapiens, HCT-116, MDA-MB-231, HeLa, MCF-7; range; read-out: IC50 values, range over the cancer cell lines tested
pIC50: −log10 of the molar value.

1) COc1cccc(/C=C/C(=O)c2ccccc2)c1
4.13 to 4.63
2) COc1ccccc1/C=C/C(=O)c1ccccc1
4.13 to 4.63

// input: 2 molecules below; output: pIC50 for each
1. COc1cc(/C=C/C(=O)c2ccccc2)ccc1OCc1ccccc1
2. O=C(/C=C/c1ccc(O)cc1)c1ccccc1

OUTPUT:
["4.08 to 4.25", "4.46 to 5.68"]

====

assay-protocol: MTT cytotoxicity assay, normal cell line WI-38
Format: cell-based, human
protocol-conditions: human, WI-38 cells (normal human lung fibroblasts), normal (non-cancer) cell line, 24 h treatment
parameter-measured: IC50 at 24 h

Study these solved cases before continuing.
1) COc1cccc(C(=O)/C=C/c2ccc(OCc3ccccc3)c(OC)c2)c1
40 to 40.1 µM
2) O=C(/C=C/c1ccc(OCc2ccccc2)cc1)c1ccccc1
> 100 µM

Could you tell me IC50 at 24 h for each of these compounds? They are listed below.
1. COc1cccc(/C=C/C(=O)c2ccccc2)c1
2. COc1cccc(C(=O)/C=C/c2ccc(Cl)cc2)c1
3. COc1ccccc1/C=C/C(=O)c1ccccc1
4. COc1ccc(C(=O)/C=C/c2cccc(OCc3ccccc3)c2)cc1
5. COc1cc(/C=C/C(=O)c2ccccc2)ccc1OCc1ccccc1
6. COc1cccc(C(=O)/C=C/c2ccc(OCc3ccccc3)cc2)c1

OUTPUT:
1. 77.3 to 100 µM
2. > 100 µM
3. 77.3 to 100 µM
4. > 100 µM
5. 40 to 40.1 µM
6. > 100 µM

====

Give measured IC50 for each item. Keep answers brief.
Test system: MDA-MB-231
assay-protocol: MTT cytotoxicity assay, MDA-MB-231
Assay type: cell-based
protocol-conditions: Homo sapiens, 24 h treatment, mean ± SD of triplicate

1. COc1cccc(C(=O)/C=C/c2ccc(Cl)cc2)c1
> 100 µM
2. COc1cccc(C(=O)/C=C/c2ccc(OCc3ccccc3)c(OC)c2)c1
> 100 µM

// next item, IC50 requested
INPUT: # get_value(readout='IC50', item= `O=C(/C=C/c1ccc(OCc2ccccc2)cc1)c1ccccc1` )
OUTPUT: > 100 µM
